Measured self-splicing fitness (ln) by item
# testProtocol: self-splicing fitness, log relative to wild type (ln ratio); higher = more splicing; Tetrahymena group I intron in knt gene, E. coli kanamycin selection, DiMSum; sequences stand for … in CUCUCU…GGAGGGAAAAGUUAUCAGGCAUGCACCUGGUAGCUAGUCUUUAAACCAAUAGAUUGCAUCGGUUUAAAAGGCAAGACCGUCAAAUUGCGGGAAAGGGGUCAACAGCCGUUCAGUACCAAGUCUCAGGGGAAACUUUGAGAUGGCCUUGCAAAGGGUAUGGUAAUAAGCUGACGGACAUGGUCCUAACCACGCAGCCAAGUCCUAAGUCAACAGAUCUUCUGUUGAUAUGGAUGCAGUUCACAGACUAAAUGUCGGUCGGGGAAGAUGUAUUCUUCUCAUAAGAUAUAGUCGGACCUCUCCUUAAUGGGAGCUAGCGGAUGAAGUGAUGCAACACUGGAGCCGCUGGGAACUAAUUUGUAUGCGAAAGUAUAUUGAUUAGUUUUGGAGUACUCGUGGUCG;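 also: selection with 25 µg/mL kanamycin versus none on LB agar overnight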
# runConditions: 30 °C
The answer should be a number; do not append a unit.

Before answering, review these 4 worked examples.
biosequence	number
AUAUAGCAAUAUUACGCCAU	-1.32
UAGUAGCAAUAUUACGGAAC	-2.97
CGGCAGCAAUAUUACGCAUG	-2.27
GGCAAGCAAUAUUACGAUUC	0.184

Please turn your attention to the following entry.
Q: So what does the record say about self-splicing fitness (ln) for GGGGAGCAAUAUUACGAUAC ?
A: -2.37
